Assay: Human HepG2 cell viability assay in 384 well format
Format: toxicity, cell-based
Design: dose 125 nL, time 70.5 hour; concentration not given beside the values
Conditions: HepG2 cells, read-out: Inhibition
Measured quantity: cytotoxicity at 70.5 h (%)
Reply numerically in %, unit not repeated.

Reference set (4 entries):
Cc1cc(C(F)(F)F)nc(CCNC(C)Cn2ccnc2)n1 (stereo unspecified) :: -23.4
CCOC(=O)c1nc(CN2CCC(NC(=O)C(C)C)CC2)cs1 :: -3.69
Cc1nc(-c2cncnc2C2CCCNC2)no1 (stereo unspecified) :: 26.9
COc1cc(CN2CC[C@@]3(CCCO3)[C@@H](O)C2)ccc1F :: -7.93

Measured cytotoxicity at 70.5 h, Cc1ccc(S(=O)(=O)N2CC[C@@H]3C[C@H](NC(=O)c4n[nH]cc4Cl)[C@@H]32)cc1 : -1.23

Measured cytotoxicity at 70.5 h, Cc1nccc(-c2ccccc2)c1C(=O)N1CC[C@](C)(O)C(C)(C)C1 : 1.9

Measured cytotoxicity at 70.5 h, CSc1ccc2c(C)cc(N[C@@H](C)CO)nc2c1 : 23.3

Measured cytotoxicity at 70.5 h, COC(=O)CC(c1ccccc1)c1oc(C)cc(=O)c1O (stereo unspecified) : 6.19

Measured cytotoxicity at 70.5 h, CN1CCCCC12CCN(C(=O)c1cccn1C)CC2 : -7.36

Measured cytotoxicity at 70.5 h, O=S1(=O)CCC(N(CCc2ccc3c(c2)CCO3)C2CC2)C1 (stereo unspecified) : -1.96

Measured cytotoxicity at 70.5 h, c1ccc(C2CN(C3CC3)CC3(CCN(Cc4cscn4)CC3)C2)cc1 (stereo unspecified) : -5.25

###

Assay: Human HepG2 cell viability assay in 384 well format
Assay type: toxicity, cell-based
Set-up: dose 125 nL, time 70.5 hour; concentration not given beside the values
Details: HepG2 cells, read-out: Inhibition
Measured quantity: cytotoxicity at 70.5 h (%)
Reply numerically in %, unit not repeated.

CN(C)CCCNC(=O)C1CC(=O)N(c2n[nH]c3cccc(F)c23)C1 (centres undefined) :: -26.2
COc1cccc(C(O)CNC(=O)CC2CCCCC2)c1 (centres undefined) :: -8.34
NC(=O)CN1CC2(CCC1=O)CCN(Cc1ccc(Cl)c(F)c1)CC2 :: 2.58
Cc1ccnc(C2(C)CCCN2S(=O)(=O)c2cccnc2)n1 (centres undefined) :: -3.08
CN1CCN(C(=O)c2[nH]nnc2Nc2ccccc2F)CC1 :: -14.3
COc1cccc(C(NCc2ccc(SC)cc2)c2nccn2C)c1 (centres undefined) :: 3.42
O=C(NCC1Cn2nnc(-c3ccsc3)c2CO1)c1ccc[nH]1 (centres undefined) :: 1.74
CCN(CC)S(=O)(=O)c1ccc2c(c1)N(Cc1ccncc1)C(=O)CS2 :: -3.41

Measured cytotoxicity at 70.5 h, Cc1noc(NC(=O)c2ccc(Br)o2)n1 : -9.68

Measured cytotoxicity at 70.5 h, CN(Cc1noc(C2CC2)n1)C1CCN(CCc2cnn(C)c2)C1 (centres undefined) : 14.4

Measured cytotoxicity at 70.5 h, CSCCC1c2nc[nH]c2CCN1Cc1cncn1C (centres undefined) : 33.9

Measured cytotoxicity at 70.5 h, Cc1cccc(C(C(=O)N(C)Cc2ccon2)N(C)C)c1 (centres undefined) : -0.0384

Measured cytotoxicity at 70.5 h, CNS(=O)(=O)CCCNC(C)(C)c1nc(C)cs1 : -1.16

Measured cytotoxicity at 70.5 h, CCCn1ccnc1-c1nccn1CCn1cnnc1 : -6.38
